classification of cell line as Low(1), Medium(2), High(3) sensitivity to compound overview
# Test system: 60 cancer cell lines (NCI 60 cancer cell line series)
# test.name: NCI-DTP in vitro cancer screen, sulforhodamine B (SRB) growth inhibition, 48 hour exposure
# Type: cell-based, human
# test.parameters: Leukemia MOLT-4 CL7006
Give the figure by itself; no unit, no explanation.

The cases that follow already have their classification of cell line as Low(1), Medium(2), High(3) sensitivity to compound on record.
# molecule, value.observed
records = [
    ("O=C1c2c(O)ccc(O)c2C(=O)c2c(NCCNCCO)ccc(NCCNCCO)c21", 3),
    ("COc1cccc2c1C(=O)c1c(O)c3c(c(O)c1C2=O)C[C@@](O)(C(=O)CO)C[C@@H]3O[C@H]1C[C@H](N)[C@H](O)[C@H](C)O1", 3),
    ("COc1cccc2c1C(=O)c1c(O)c3c(c(O)c1C2=O)C[C@@](O)(C(C)=O)C[C@@H]3O[C@H]1C[C@H](N)[C@H](O)[C@H](C)O1", 3),
    ("COc1cc([C@@H]2c3cc4c(cc3[C@@H](O[C@@H]3O[C@@H]5CO[C@@H](c6cccs6)O[C@H]5[C@H](O)[C@H]3O)[C@H]3COC(=O)[C@H]23)OCO4)cc(OC)c1O [Teniposide]", 3),
    ("N[C@@H](Cc1ccc(N(CCCl)CCCl)cc1)C(=O)O", 3),
]

Tell me the measured classification of cell line as Low(1), Medium(2), High(3) sensitivity to compound of CC(=O)O[C@H]1C(=O)[C@@]2(C)[C@H]([C@H](OC(=O)c3ccccc3)[C@]3(O)C[C@H](OC(=O)[C@H](O)[C@@H](NC(=O)c4ccccc4)c4ccccc4)C(C)=C1C3(C)C)[C@]1(OC(C)=O)CO[C@@H]1C[C@@H]2O [TAXOL, paclitaxel, reference compound] , please.
2

----------
# System: 60 cancer cell lines (NCI 60 cancer cell line series)
# test.name: NCI-DTP in vitro cancer screen, sulforhodamine B (SRB) growth inhibition, 48 hour exposure
# Assay type: cell-based, human
# test.parameters: Renal RXF-393 CL9016
Structures can show the parent of a compound that is named as a salt.
metric: sensitivity classification Low(1)/Medium(2)/High(3)
Give the figure by itself; no unit, no explanation.

The cases that follow already have their sensitivity classification Low(1)/Medium(2)/High(3) on record.
# compound, value.observed
rows = [
    ("O=c1[nH]cc(F)c(=O)[nH]1", 2),
    ("COc1cccc2c1C(=O)c1c(O)c3c(c(O)c1C2=O)C[C@@](O)(C(=O)CO)C[C@@H]3O[C@H]1C[C@H](N)[C@H](O)[C@H](C)O1", 2),
    ("COc1cc([C@@H]2c3cc4c(cc3[C@@H](O[C@@H]3O[C@@H]5CO[C@@H](C)O[C@H]5[C@H](O)[C@H]3O)[C@H]3COC(=O)[C@H]23)OCO4)cc(OC)c1O [Etoposide]", 2),
]

Tell me the measured sensitivity classification Low(1)/Medium(2)/High(3) of CC[C@]1(O)C[C@H]2CN(CCc3c([nH]c4ccccc34)[C@@](C(=O)OC)(c3cc4c(cc3OC)N(C=O)[C@H]3[C@@](O)(C(=O)OC)[C@H](OC(C)=O)[C@]5(CC)C=CCN6CC[C@]43[C@@H]65)C2)C1 [Vincristine sulfate] , please.
2

Tell me the measured sensitivity classification Low(1)/Medium(2)/High(3) of NC(=O)NO [Hydroxyurea] , please.
2

Tell me the measured sensitivity classification Low(1)/Medium(2)/High(3) of COc1cc([C@@H]2c3cc4c(cc3[C@@H](O[C@@H]3O[C@@H]5CO[C@@H](c6cccs6)O[C@H]5[C@H](O)[C@H]3O)[C@H]3COC(=O)[C@H]23)OCO4)cc(OC)c1O [Teniposide] , please.
2

Tell me the measured sensitivity classification Low(1)/Medium(2)/High(3) of CS(=O)(=O)OCCCCOS(C)(=O)=O , please.
3

Tell me the measured sensitivity classification Low(1)/Medium(2)/High(3) of Sc1ncnc2nc[nH]c12 , please.
1

Tell me the measured sensitivity classification Low(1)/Medium(2)/High(3) of CC(=O)O[C@H]1C(=O)[C@@]2(C)[C@H]([C@H](OC(=O)c3ccccc3)[C@]3(O)C[C@H](OC(=O)[C@H](O)[C@@H](NC(=O)c4ccccc4)c4ccccc4)C(C)=C1C3(C)C)[C@]1(OC(C)=O)CO[C@@H]1C[C@@H]2O [TAXOL, paclitaxel, reference compound] , please.
2

----------
# Tested on: 60 cancer cell lines (NCI 60 cancer cell line series)
# test.name: NCI-DTP in vitro cancer screen, sulforhodamine B (SRB) growth inhibition, 48 hour exposure
# Assay type: cell-based, human
# test.parameters: Leukemia HL-60(I) CL7008
metric: classification of cell line as Low(1), Medium(2), High(3) sensitivity to compound

The cases that follow already have their classification of cell line as Low(1), Medium(2), High(3) sensitivity to compound on record.
# compound, value.observed
measured = [
    ("COc1cccc2c1C(=O)c1c(O)c3c(c(O)c1C2=O)C[C@@](O)(C(=O)CO)C[C@@H]3O[C@H]1C[C@H](N)[C@H](O)[C@H](C)O1", 2),
    ("NC(=O)NO [Hydroxyurea]", 3),
    ("O=c1[nH]cc(F)c(=O)[nH]1", 2),
    ("COc1cc([C@@H]2c3cc4c(cc3[C@@H](O[C@@H]3O[C@@H]5CO[C@@H](C)O[C@H]5[C@H](O)[C@H]3O)[C@H]3COC(=O)[C@H]23)OCO4)cc(OC)c1O [Etoposide]", 2),
    ("N.N.[Cl][Pt][Cl] [cisplatin, cis-Diamminedichloroplatinum (II), reference compound]", 3),
]

API: value(readout=classification of cell line as Low(1), Medium(2), High(3) sensitivity to compound, system=60 cancer cell lines (NCI 60 cancer cell line series)) for record CS(=O)(=O)OCCCCOS(C)(=O)=O
3

API: value(readout=classification of cell line as Low(1), Medium(2), High(3) sensitivity to compound, system=60 cancer cell lines (NCI 60 cancer cell line series)) for record COc1cccc2c1C(=O)c1c(O)c3c(c(O)c1C2=O)C[C@@](O)(C(C)=O)C[C@@H]3O[C@H]1C[C@H](N)[C@H](O)[C@H](C)O1
3

----------
classification of cell line as Low(1), Medium(2), High(3) sensitivity to compound overview
# System: 60 cancer cell lines (NCI 60 cancer cell line series)
# test.name: NCI-DTP in vitro cancer screen, sulforhodamine B (SRB) growth inhibition, 48 hour exposure
# Format: cell-based, human
# test.parameters: NSCLC A549/ATCC CL1004
Counter-ions that a name gives are not always drawn.
Give the figure by itself; no unit, no explanation.

# compound, value.observed
data = [
    ("O=C1c2c(O)ccc(O)c2C(=O)c2c(NCCNCCO)ccc(NCCNCCO)c21", 3),
    ("CN(Cc1cnc2nc(N)nc(N)c2n1)c1ccc(C(=O)N[C@@H](CCC(=O)O)C(=O)O)cc1 [Methotrexate]", 3),
    ("N[C@@H](Cc1ccc(N(CCCl)CCCl)cc1)C(=O)O", 2),
    ("CC[C@]1(O)C[C@H]2CN(CCc3c([nH]c4ccccc34)[C@@](C(=O)OC)(c3cc4c(cc3OC)N(C=O)[C@H]3[C@@](O)(C(=O)OC)[C@H](OC(C)=O)[C@]5(CC)C=CCN6CC[C@]43[C@@H]65)C2)C1 [Vincristine sulfate]", 2),
    ("COc1cccc2c1C(=O)c1c(O)c3c(c(O)c1C2=O)C[C@@](O)(C(C)=O)C[C@@H]3O[C@H]1C[C@H](N)[C@H](O)[C@H](C)O1", 2),
    ("NC(=O)NO [Hydroxyurea]", 2),
    ("CC[C@]1(O)C[C@@H]2CN(CCc3c([nH]c4ccccc34)[C@@](C(=O)OC)(c3cc4c(cc3OC)N(C)[C@H]3[C@@](O)(C(=O)OC)[C@H](OC(C)=O)[C@]5(CC)C=CCN6CC[C@]43[C@@H]65)C2)C1 [Vinblastine sulfate]", 2),
    ("O=C(O)CCCc1ccc(N(CCCl)CCCl)cc1", 2),
    ("Sc1ncnc2nc[nH]c12", 1),
]

Tell me the measured classification of cell line as Low(1), Medium(2), High(3) sensitivity to compound of CS(=O)(=O)OCCCCOS(C)(=O)=O , please.
2

----------
classification of cell line as Low(1), Medium(2), High(3) sensitivity to compound overview
# System: 60 cancer cell lines (NCI 60 cancer cell line series)
# test.name: NCI-DTP in vitro cancer screen, sulforhodamine B (SRB) growth inhibition, 48 hour exposure
# Format: cell-based, human
# test.parameters: Leukemia MOLT-4 CL7006
Where a name gives a salt, the structure may show the parent alone.
Give the figure by itself; no unit, no explanation.

The cases that follow already have their classification of cell line as Low(1), Medium(2), High(3) sensitivity to compound on record.
# molecule, value.observed
records = [
    ("CC[C@]1(O)C[C@@H]2CN(CCc3c([nH]c4ccccc34)[C@@](C(=O)OC)(c3cc4c(cc3OC)N(C)[C@H]3[C@@](O)(C(=O)OC)[C@H](OC(C)=O)[C@]5(CC)C=CCN6CC[C@]43[C@@H]65)C2)C1 [Vinblastine sulfate]", 2),
    ("CC[C@]1(O)C[C@H]2CN(CCc3c([nH]c4ccccc34)[C@@](C(=O)OC)(c3cc4c(cc3OC)N(C=O)[C@H]3[C@@](O)(C(=O)OC)[C@H](OC(C)=O)[C@]5(CC)C=CCN6CC[C@]43[C@@H]65)C2)C1 [Vincristine sulfate]", 3),
    ("O=c1[nH]cc(F)c(=O)[nH]1", 2),
    ("NC(=O)NO [Hydroxyurea]", 3),
    ("Sc1ncnc2nc[nH]c12", 2),
    ("COc1cc([C@@H]2c3cc4c(cc3[C@@H](O[C@@H]3O[C@@H]5CO[C@@H](C)O[C@H]5[C@H](O)[C@H]3O)[C@H]3COC(=O)[C@H]23)OCO4)cc(OC)c1O [Etoposide]", 3),
    ("CS(=O)(=O)OCCCCOS(C)(=O)=O", 3),
]

Now take the following molecule into account.
Tell me the measured classification of cell line as Low(1), Medium(2), High(3) sensitivity to compound of O=C(O)CCCc1ccc(N(CCCl)CCCl)cc1 , please.
3
